The measurements presented in this section are drawn from patent US9533982B2.

target: UniProt P31424; assay: mGluR5 activity, cell-based Ca2+ fluorescence (FDSS) assay in human embryonic kidney cells transfected with rat mGluR5; details: HEK cells transfected with rat mGluR5; antagonism of EC80 glutamate response; single experiment or average of two where no error is given
Measured quantity: IC50 (nM)

Solved entries (count: 2):
{"columns": ["Compound", "Numeric readout"],
 "data": [
  ["Cc1csc(NC(=O)c2cc(C(F)c3cncnc3)cc3cccnc23)n1 (stereo not drawn)", 127],
  ["O=C(Nc1ccc(F)cn1)c1cc(C(F)c2cncnc2)cc2cccnc12 (stereo not drawn)", 83]
]}

[1] O=C(c1cncnc1)c1cc(C(=O)Nc2ccc(F)cn2)c2ncccc2c1
[2] Cc1csc(NC(=O)c2cc(C(=O)c3cncnc3)cc3cccnc23)n1
[3] Cc1cccc(NC(=O)c2cc(C(=O)c3cncnc3)cc3nccnc23)n1
[4] Cc1cccc(NC(=O)c2cc(C(=O)c3cncnc3)cc3cccnc23)n1
[5] Cc1csc(NC(=O)c2cc(C(=O)c3cncc(F)c3)cc3cccnc23)n1
Task for the reader: rank each entry by its IC50, from the minimum upward. Reply format: the labels, ordered as requested. 2, 1, 4, 5, 3
(2: 73 nM, 1: 106 nM, 4: 163 nM, 5: 444 nM, 3: 3090 nM)

[P] O=C(Nc1ccc(F)cn1)c1cc(C(F)(F)c2cncnc2)cc2cccnc12
[Q] Cc1csc(NC(=O)c2cc(C(C)c3cncnc3)cc3cccnc23)n1 (stereo not drawn)
[R] Cc1cccc(NC(=O)c2cc(C(=O)c3cncc(F)c3)cc3cccnc23)n1
Task for the reader: rank each entry by its IC50, from the minimum upward. Reply format: the labels, ordered as requested. P, Q, R

[I] O=C(c1cncnc1)c1cc(C(=O)Nc2ccc(Cl)cn2)c2nccnc2c1
[II] O=C(c1cncnc1)c1cc(C(=O)Nc2cccc(Cl)n2)c2ncccc2c1
Field: lower IC50 | Options: I / II When you have decided, please share the label of that item. I

[I] O=C(c1cncnc1)c1cc(C(=O)Nc2cccc(F)n2)c2ncccc2c1
[II] Cc1csc(NC(=O)c2cc(C(=O)c3cncnc3)cc3nccnc23)n1
[III] O=C(c1cncnc1)c1cc(C(=O)Nc2ccc(Cl)cn2)c2ncccc2c1
# desc sort on IC50 across 3 compounds Reply format: the labels, ordered as requested. I, II, III
(I: 645 nM, II: 380 nM, III: 148 nM)

====

target: rat mGluR5 (Rattus norvegicus, UniProt P31424); assay: mGluR5 activity, cell-based Ca2+ fluorescence (FDSS) assay in human embryonic kidney cells transfected with rat mGluR5; settings: HEK cells transfected with rat mGluR5; antagonism of EC80 glutamate response; single experiment or average of two where no error is given
Sequence (P31424 21-1171 isoform P31424-2 limits assumed): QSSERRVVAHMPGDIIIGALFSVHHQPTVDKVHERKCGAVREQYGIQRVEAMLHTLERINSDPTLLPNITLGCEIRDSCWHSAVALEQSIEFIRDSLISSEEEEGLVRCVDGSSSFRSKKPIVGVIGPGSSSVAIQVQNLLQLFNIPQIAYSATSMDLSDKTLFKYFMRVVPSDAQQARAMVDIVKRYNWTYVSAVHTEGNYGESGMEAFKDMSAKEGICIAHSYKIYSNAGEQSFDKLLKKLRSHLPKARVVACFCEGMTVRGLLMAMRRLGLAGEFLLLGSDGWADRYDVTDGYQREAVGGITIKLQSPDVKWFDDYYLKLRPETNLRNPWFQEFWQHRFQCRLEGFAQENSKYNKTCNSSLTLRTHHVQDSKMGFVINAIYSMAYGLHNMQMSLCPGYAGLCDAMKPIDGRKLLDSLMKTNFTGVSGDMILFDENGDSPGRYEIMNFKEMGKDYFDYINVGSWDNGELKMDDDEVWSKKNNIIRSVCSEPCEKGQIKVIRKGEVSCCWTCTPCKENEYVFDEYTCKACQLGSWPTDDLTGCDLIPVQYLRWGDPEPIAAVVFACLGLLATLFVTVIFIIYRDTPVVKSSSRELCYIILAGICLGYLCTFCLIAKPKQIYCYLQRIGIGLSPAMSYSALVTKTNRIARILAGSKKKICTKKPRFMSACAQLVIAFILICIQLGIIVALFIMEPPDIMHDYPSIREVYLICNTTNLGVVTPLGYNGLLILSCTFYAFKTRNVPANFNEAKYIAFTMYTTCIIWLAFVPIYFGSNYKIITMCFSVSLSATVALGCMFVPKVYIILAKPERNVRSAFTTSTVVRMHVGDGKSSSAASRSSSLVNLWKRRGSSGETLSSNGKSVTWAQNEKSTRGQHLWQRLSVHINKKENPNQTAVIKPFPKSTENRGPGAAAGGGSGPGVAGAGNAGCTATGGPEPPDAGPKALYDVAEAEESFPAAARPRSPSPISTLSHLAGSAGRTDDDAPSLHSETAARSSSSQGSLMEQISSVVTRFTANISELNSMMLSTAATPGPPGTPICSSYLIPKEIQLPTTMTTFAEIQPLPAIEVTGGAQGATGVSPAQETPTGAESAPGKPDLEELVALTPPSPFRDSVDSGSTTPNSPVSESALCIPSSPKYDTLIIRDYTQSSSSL
The reader will find reported IC50 values listed item by item below.

Suppose we examine the molecule COC(c1cncnc1)c1cc(C(=O)Nc2ccc(F)cn2)c2ncccc2c1 (stereo not drawn) ; what IC50 value has been reported? 0.89 µM

Suppose we examine the molecule CC(c1cncnc1)c1cc(C(=O)Nc2ccc(F)cn2)c2ncccc2c1 (stereo not drawn) ; what IC50 value has been reported? 0.54 µM

Suppose we examine the molecule Cc1csc(NC(=O)c2cc(C(O)c3cncc(F)c3)cc3cccnc23)n1 (stereo not drawn) ; what IC50 value has been reported? > 30 µM

Suppose we examine the molecule O=C(c1cncc(F)c1)c1cc(C(=O)Nc2cccc(Cl)n2)c2ncccc2c1 ; what IC50 value has been reported? > 30 µM

Suppose we examine the molecule COC(c1cncnc1)c1cc(C(=O)Nc2nc(C)cs2)c2ncccc2c1 (stereo not drawn) ; what IC50 value has been reported? 0.552 µM

====

biological target: rat mGluR5 (Rattus norvegicus); assay: mGluR5 activity, cell-based Ca2+ fluorescence (FDSS) assay in human embryonic kidney cells transfected with rat mGluR5; details: HEK cells transfected with rat mGluR5; antagonism of EC80 glutamate response; single experiment or average of two where no error is given
The reader will find reported IC50 values listed item by item below.

Solved entries (count: 3):
{"columns": ["Compound", "Result"],
 "data": [
  ["O=C(c1cncc(F)c1)c1cc(C(=O)Nc2ccc(Cl)cn2)c2ncccc2c1", "> 30 µM"],
  ["O=C(c1cncnc1)c1cc(C(=O)Nc2ccc(F)cn2)c2nccnc2c1", "> 10 µM"],
  ["O=C(Nc1ccc(F)cn1)c1cc(C(F)c2cncnc2)cc2nccnc12 (stereo not shown)", "> 10 µM"]
]}

Moving on to the next compound.
# value lookup — system rat mGluR5 (Rattus norvegicus), readout IC50, item Cc1csc(NC(=O)c2cc(C(O)c3cncnc3)cc3cccnc23)n1 (stereo not shown) > 10 µM
